# Assayed System: Rvs167, P39743
# Sequence (P39743 419-482): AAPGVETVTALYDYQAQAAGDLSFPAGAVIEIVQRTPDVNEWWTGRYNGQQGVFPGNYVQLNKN
# Protocol Summary: SPOT array
# Conditions Used: median of control spots 2707
Outcome Measure: SPOT intensity

>>> data_value("GLRRARYKFPGQQKI")
6
>>> data_value("DRIRMFIRFPKFLLE")
0
>>> data_value("TKPTPPPKPSHLKPK")
0
>>> data_value("YLTRPLPSTPNEDSR")
15
>>> data_value("GRSRLFPHSPLGRSS")
0
>>> data_value("RRLRDKYKLPIVDAD")
1
>>> data_value("TTNRGPPPLPPRANV")
4620
>>> data_value("ITHRLRISIPGITGR")
0
>>> data_value("RRRRRPHRIERPLSN")
4
>>> data_value("SKIRPTPRKPSRMAT")
148
>>> data_value("QPPLPSSAPPIPTSH")
0
>>> data_value("PELAPKREAPKPPAN")
0
>>> data_value("NTMKKRPAPPSLPSL")
9
>>> data_value("VPKEPAPAPPPEPDM")
0
>>> data_value("VLRFLGFPLPIFEKG")
0
>>> data_value("RSRRSSFAYPQQVAI")
2
>>> data_value("FVLRYYILIPHEQWD")
0
>>> data_value("DLFKPLPEPPTELGR")
0
>>> data_value("ANNQGPPNLPARDKS")
3320
>>> data_value("TYNRTAFQIPGDQSI")
0
>>> data_value("KRRTSLFPWLHKPGI")
0
>>> data_value("PKRRAPPPVPKKPSS")
44
>>> data_value("EAEEAAPQLPSRSSA")
75
>>> data_value("MFLISPPASPPPEFD")
0
>>> data_value("RTRRRPPPPPIPSTQ")
99
>>> data_value("PLQSKIPMLPSRRTM")
1570
>>> data_value("LPPPPPPPPPPPLPQ")
0
>>> data_value("NIKVLLNPKLGKPVK")
0
>>> data_value("RKLRTVPGVPLIHLT")
43
>>> data_value("ALKQKKIPPPFKPHL")
0
